- RUN_DESCRIPTION: gradient 5% acetonitrile 3 min, to 50% in 2 min, to 85% in 15 min, held 3 min, 100 µL/min
- CONDITION_PARAMETERS: column: Zorbax Extend-C18 2.1 x 50 mm; eluents: water / acetonitrile, 0.1% formic acid
ENDPOINT_NAME: RP-LC retention time (s)

As a guide, the following entries are already answered.
{"MOLECULE": "CC(C)CC1OC(=O)C2=CCCCC21 (stereo not given)", "MEASUREMENT_UNIT": "s", "RP-LC retention time": 1050}
{"MOLECULE": "COc1ccccc1-c1nc(Cn2ccn3nc(-c4ccc5c(c4)OCO5)cc3c2=O)c(C)o1", "MEASUREMENT_UNIT": "s", "RP-LC retention time": 960}
{"MOLECULE": "CC(C)N1C(=O)c2cccnc2Sc2cc(NC(=O)c3ccccc3F)ccc21", "MEASUREMENT_UNIT": "s", "RP-LC retention time": 896}

I. COc1ccc(C(=O)Nc2ccc(CC(=O)N3CCOCC3)cc2)c(OC)c1OC
II. Cc1ccc(NC(=O)c2cc(C(C)C)n3nccc3n2)cc1
Problem: Hey, between I and II which has a smaller measured RP-LC retention time? Provide the label of your selected option as the answer.
Result: I

###

- RUN_DESCRIPTION: gradient 5% acetonitrile 3 min, to 50% in 2 min, to 85% in 15 min, held 3 min, 100 µL/min
- CONDITION_PARAMETERS: column: Zorbax Extend-C18 2.1 x 50 mm; eluents: water / acetonitrile, 0.1% formic acid
ENDPOINT_NAME: RP-LC retention time (s)

{"COMPOUND": "CCCNc1cc(N2CCC(CCC(=O)NCc3ccc(Cl)cc3)CC2)ncn1", "EXPERIMENTAL_VALUE": 718}
{"COMPOUND": "COc1ccccc1CN1CCc2nc(N3CCN(c4ncccn4)CC3)ncc2C1", "EXPERIMENTAL_VALUE": 716}
{"COMPOUND": "O=C(NCCCOc1cccc2cccnc12)c1cc(-c2ccccc2)on1", "EXPERIMENTAL_VALUE": 617}
{"COMPOUND": "O=C(NCc1ccncc1)C1CN(S(=O)(=O)C2CC2)CC12CCCCC2 (stereo not drawn)", "EXPERIMENTAL_VALUE": 598}
{"COMPOUND": "Cc1ccc(C(=O)N2CCCCCNC(=O)[C@@H]3CCC[C@@H]32)s1", "EXPERIMENTAL_VALUE": 740}
{"COMPOUND": "CC1(C)CC(=O)c2cn(-c3ccc(Cl)cc3)c(=O)c(C(=O)NCCN3CCOCC3)c2C1", "EXPERIMENTAL_VALUE": 592}
{"COMPOUND": "Cc1ccsc1CN1CCc2[nH]nc(C(=O)N(C)C)c2C1", "EXPERIMENTAL_VALUE": 559}
{"COMPOUND": "CCCNC(=O)C1CCN(c2ccc(SCC(=O)Nc3ccc(F)c(F)c3)nn2)CC1", "EXPERIMENTAL_VALUE": 665}
{"COMPOUND": "Cc1nn(-c2cc(N3CCCC3)ncn2)c(C)c1CCC(=O)Nc1ccc(F)cc1Cl", "EXPERIMENTAL_VALUE": 791}
{"COMPOUND": "O=C(CC1CCN(S(=O)(=O)c2ccccc2)CC1)N1CCN(c2ccccn2)CC1", "EXPERIMENTAL_VALUE": 625}
{"COMPOUND": "CCn1cc(C(=O)Nc2ccc(C)c(C)c2)c2cccnc21", "EXPERIMENTAL_VALUE": 937}
{"COMPOUND": "COc1ccc(CC(=O)Nc2nc3ccc(S(=O)(=O)NC(C)C)cc3s2)cc1OC", "EXPERIMENTAL_VALUE": 730}
{"COMPOUND": "CCNc1ncnc2sc3c(c12)CCN(C(=O)COC)C3", "EXPERIMENTAL_VALUE": 601}
{"COMPOUND": "CCS(=O)(=O)N1CC(=O)N(c2cc(C)ccc2C)C(C)(C(=O)NCc2ccccc2)C1 (stereo not drawn)", "EXPERIMENTAL_VALUE": 807}
{"COMPOUND": "CCN1CCN(c2nccc(-c3cnc4nc(-c5cccnc5)nn4c3C)n2)CC1", "EXPERIMENTAL_VALUE": 574}
{"COMPOUND": "Cc1cc(Nc2ccccc2)nc(N2CCN(C(=O)Nc3ccccc3)CC2)n1", "EXPERIMENTAL_VALUE": 693}
{"COMPOUND": "CCc1c(C(=O)O)nnn1Cc1cccc(OC)c1", "EXPERIMENTAL_VALUE": 687}
{"COMPOUND": "COc1cc(NC(=O)CN2C(=O)CCn3nc(-c4cn(C)c5ccccc45)cc32)cc(OC)c1", "EXPERIMENTAL_VALUE": 822}
{"COMPOUND": "CC(CCNC(=O)c1nnc(-c2ccc(S(=O)(=O)N3CCCC3)cc2)o1)N1CCCCCC1 (stereo not drawn)", "EXPERIMENTAL_VALUE": 644}
{"COMPOUND": "COC[C@@H]1CN(c2cnccn2)C[C@H]1C(=O)NCc1ccc(C)o1", "EXPERIMENTAL_VALUE": 636}
{"COMPOUND": "COc1ccc(-c2ccnc3ncnn23)c(F)c1", "EXPERIMENTAL_VALUE": 681}
{"COMPOUND": "COc1cc(CNC(=O)COc2ccc(NC(=O)C3CC3)cn2)cc(OC)c1", "EXPERIMENTAL_VALUE": 713}
{"COMPOUND": "O=C(CCC1CCN(S(=O)(=O)c2ccccc2)CC1)N1CCOCC1", "EXPERIMENTAL_VALUE": 741}
{"COMPOUND": "CC1CCN(CC[C@H]2CCCN2S(=O)(=O)c2cccc(O)c2)CC1", "EXPERIMENTAL_VALUE": 646}
{"COMPOUND": "N#Cc1ccc(C(=O)N2CC(n3cc(COCC4CC4)nn3)C2)cc1", "EXPERIMENTAL_VALUE": 691}
{"COMPOUND": "O=C(O)CCNc1c(-c2ccc(F)cc2)nc2cnccn12", "EXPERIMENTAL_VALUE": 619}
{"COMPOUND": "CCCC(=O)Nc1ccc2c(c1)CN(C(=O)c1cccc(Cl)c1)C(C(=O)N(C)C)C2 (stereo not drawn)", "EXPERIMENTAL_VALUE": 759}
{"COMPOUND": "Cc1ccc(NC(=O)Cn2nc(N3CCOCC3)c3ccccc3c2=O)cc1Cl", "EXPERIMENTAL_VALUE": 780}

###

- RUN_DESCRIPTION: gradient 5% acetonitrile 3 min, to 50% in 2 min, to 85% in 15 min, held 3 min, 100 µL/min
- CONDITION_PARAMETERS: column: Zorbax Extend-C18 2.1 x 50 mm; eluents: water / acetonitrile, 0.1% formic acid
ENDPOINT_NAME: RP-LC retention time (s)

Consider the following illustrative entries.
{"MOLECULE": "CCOC(=O)c1cnc2nc(C)ccc2c1Nc1ccccc1", "RP-LC retention time (s)": 673}
{"MOLECULE": "Cc1ccccc1Cn1c(N2CCC(C(=O)N3CCN(c4ccccn4)CC3)CC2)nc2ccccc21", "RP-LC retention time (s)": 587}
{"MOLECULE": "Cc1cc(C)c2c(N3CCOCC3)nc(C(=O)N3CCN(c4ccccc4)CC3)nc2n1", "RP-LC retention time (s)": 653}
{"MOLECULE": "Cc1cc(=O)n(CC(=O)Nc2ccccc2)c(N2CCCC2)n1", "RP-LC retention time (s)": 622}

P. COc1ccccc1-c1ccc(SCc2cccc(C)c2)nn1
Q. COCCN1C(=O)Cc2ccccc2C1C(=O)N1CCN(c2ccccn2)CC1 (stereo unspecified)
Problem: Between item P and item Q , which reported RP-LC retention time is smaller? Response format: the label of the selected entry.
Result: Q

###

- RUN_DESCRIPTION: gradient 5% acetonitrile 3 min, to 50% in 2 min, to 85% in 15 min, held 3 min, 100 µL/min
- CONDITION_PARAMETERS: column: Zorbax Extend-C18 2.1 x 50 mm; eluents: water / acetonitrile, 0.1% formic acid
ENDPOINT_NAME: RP-LC retention time (s)

{"COMPOUND": "CC(=O)Nc1nc2ccc(CC(=O)NCCc3c[nH]c4ccc(Cl)cc34)cc2s1", "EXPERIMENTAL_VALUE": 747}
{"COMPOUND": "Cc1ccc(NC(=O)Nc2cccc(-c3ccc(N4CCOCC4)nn3)c2)c(C)c1", "EXPERIMENTAL_VALUE": 732}
{"COMPOUND": "O=C(c1ccc2c(c1)OCO2)N1CCN(Cc2nnnn2-c2ccc(F)c(F)c2)CC1", "EXPERIMENTAL_VALUE": 746}

A. Cc1nc(C2CN(S(=O)(=O)c3ccccc3C(F)(F)F)CC23CCOCC3)no1 (configuration not stated)
B. O=C(NCc1ccccn1)C1CCc2sc(C(=O)N3CCCC3)cc2C1 (configuration not stated)
Problem: Which record would sort first by descending RP-LC retention time, A or B ? // respond with label for picked entry
Result: A
(A: 892 s, B: 518 s)

A. O=C(NCc1ccccc1)C1CCc2nc(N3CCOCC3)ncc2C1 (configuration not stated)
B. Cc1nc2c(sc3nc(-c4ccccc4)ccc32)c(=O)n1CC(=O)Nc1ccc(Cl)cc1
Problem: Hi! Which is lower in terms of RP-LC retention time, the first one A or the second one B ? # answer = label of selected item
Result: A
(A: 696 s, B: 1120 s)
